target: Neprilysin (Homo sapiens) (UniProt P08473); assay: Ratio Kcat to […] for neprilysin
Sequence (P08473 whole entry): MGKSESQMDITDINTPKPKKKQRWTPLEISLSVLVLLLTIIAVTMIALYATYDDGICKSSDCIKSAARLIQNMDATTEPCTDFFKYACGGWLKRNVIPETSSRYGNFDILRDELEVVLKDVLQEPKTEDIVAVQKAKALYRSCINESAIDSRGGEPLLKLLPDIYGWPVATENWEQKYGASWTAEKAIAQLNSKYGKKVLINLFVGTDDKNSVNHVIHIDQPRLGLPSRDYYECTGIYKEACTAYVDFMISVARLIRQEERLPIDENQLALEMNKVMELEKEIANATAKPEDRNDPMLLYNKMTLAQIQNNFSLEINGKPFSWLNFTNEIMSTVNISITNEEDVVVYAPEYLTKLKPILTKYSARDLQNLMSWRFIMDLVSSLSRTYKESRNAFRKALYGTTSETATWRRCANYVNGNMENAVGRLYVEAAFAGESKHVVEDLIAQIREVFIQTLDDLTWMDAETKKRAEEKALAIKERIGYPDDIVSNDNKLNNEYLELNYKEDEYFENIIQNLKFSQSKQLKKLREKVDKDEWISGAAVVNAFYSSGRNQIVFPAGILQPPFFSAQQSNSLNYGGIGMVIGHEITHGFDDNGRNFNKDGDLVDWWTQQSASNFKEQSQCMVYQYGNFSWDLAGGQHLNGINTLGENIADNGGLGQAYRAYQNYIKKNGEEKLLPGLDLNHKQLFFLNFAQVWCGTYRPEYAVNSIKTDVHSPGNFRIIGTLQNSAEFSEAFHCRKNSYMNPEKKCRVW
Square brackets hold non-standard residues; d marks the D form. Peptide text beside a SMILES is read from it. * marks the point of attachment. Doxorubicin(3'-N) = COc1cccc2c1C(=O)c1c(O)c3c(c(O)c1C2=O)C[C@@](O)(C(=O)CO)C[C@@H]3O[C@H]1C[C@H](N*)[C@H](O)[C@H](C)O1; hTyr = N[C@@H](CCc1ccc(O)cc1)C(=O)O; hPhe = N[C@@H](CCc1ccccc1)C(=O)O; Cit = NC(=O)NCCC[C@H](N)C(=O)O; X5 = O=C(CS(=O)(=O)O)*; Bn = c1ccc(C*)cc1
READOUT: Ratio

COMPOUND | SIGN_QUALIFIER | OBSERVED_VALUE
COc1cccc2c1C(=O)c1c(O)c3c(c(O)c1C2=O)C[C@@](O)(C(=O)CO)C[C@@H]3O[C@H]1C[C@H](NC(=O)[C@H](CC(C)C)NC(=O)[C@H](Cc2ccc(O)cc2)NC(=O)[C@H](CC(C)C)NC(=O)CNC(=O)[C@H](CC(C)C)NC(C)=O)[C@H](O)[C@H](C)O1 (Ac-LGLYL-{Doxorubicin(3'-N)}) | = | 8
COc1cccc2c1C(=O)c1c(O)c3c(c(O)c1C2=O)C[C@@](O)(C(=O)CO)C[C@@H]3O[C@H]1C[C@H](NC(=O)[C@H](CC(C)C)NC(=O)[C@H](C)NC(=O)[C@H](Cc2ccc(O)cc2)NC(=O)[C@H](CC(C)C)NC(=O)CNC(=O)[C@H](CC(C)C)NC(=O)[C@@H]2CCCN2C(C)=O)[C@H](O)[C@H](C)O1 (Ac-PLGLYAL-{Doxorubicin(3'-N)}) | > | 120
COc1cccc2c1C(=O)c1c(O)c3c(c(O)c1C2=O)C[C@@](O)(C(=O)CO)C[C@@H]3O[C@H]1C[C@H](NC(=O)[C@H](CC(C)C)NC(=O)[C@H](CCc2ccc(O)cc2)NC(=O)[C@H](CCc2ccccc2)NC(=O)CNC(=O)[C@H](CC(C)C)NC(=O)[C@@H]2CCCN2C(C)=O)[C@H](O)[C@H](C)O1 (Ac-PLG[hPhe][hTyr]L-{Doxorubicin(3'-N)}) | < | 1
COc1cccc2c1C(=O)c1c(O)c3c(c(O)c1C2=O)C[C@@](O)(C(=O)CO)C[C@@H]3O[C@H]1C[C@H](NC(=O)[C@H](CC(C)C)NC(=O)[C@H](Cc2ccc(O)cc2)NC(=O)[C@H](CC(C)C)NC(=O)CNC(=O)[C@H](CC(C)C)NC(=O)[C@@H]2CCCN2C(C)=O)[C@H](O)[C@H](C)O1 (Ac-PLGLYL-{Doxorubicin(3'-N)}) | = | 22
COc1cccc2c1C(=O)c1c(O)c3c(c(O)c1C2=O)C[C@@](O)(C(=O)CO)C[C@@H]3O[C@H]1C[C@H](NC(=O)[C@H](CC(C)C)NC(=O)[C@H](Cc2ccc(O)cc2)NC(=O)[C@H](COCc2ccccc2)NC(=O)CNC(=O)[C@H](CCCNC(N)=O)NC(=O)[C@@H]2CCCN2C(=O)CS(=O)(=O)O)[C@H](O)[C@H](C)O1 (X5-P[Cit]GS(Bn)YL-{Doxorubicin(3'-N)}) | < | 1
COC[C@H](NC(=O)CNC(=O)[C@H](CC(C)C)NC(=O)[C@@H]1CCCN1C(C)=O)C(=O)N[C@@H](Cc1ccc(O)cc1)C(=O)N[C@@H](CC(C)C)C(=O)N[C@H]1C[C@H](O[C@H]2C[C@](O)(C(=O)CO)Cc3c(O)c4c(c(O)c32)C(=O)c2c(OC)cccc2C4=O)O[C@@H](C)[C@H]1O (Ac-PLGS(Me)YL-{Doxorubicin(3'-N)}) | = | 2.1
COc1cccc2c1C(=O)c1c(O)c3c(c(O)c1C2=O)C[C@@](O)(C(=O)CO)C[C@@H]3O[C@H]1C[C@H](NC(=O)[C@H](CC(C)C)NC(=O)[C@H](Cc2ccc(O)cc2)NC(=O)[C@H](CSCc2ccccc2)NC(=O)CNC(=O)[C@H](CC(C)C)NC(=O)[C@@H]2CCCN2C(=O)[C@H](CCC(=O)O)NC(C)=O)[C@H](O)[C@H](C)O1 (Ac-EPLGC(Bn)YL-{Doxorubicin(3'-N)}) | < | 1

###

target: Matrix metalloproteinase-9 (Homo sapiens) (UniProt P14780); experiment: Ratio Kcat to Ki for MMP9
Sequence (P14780 whole entry): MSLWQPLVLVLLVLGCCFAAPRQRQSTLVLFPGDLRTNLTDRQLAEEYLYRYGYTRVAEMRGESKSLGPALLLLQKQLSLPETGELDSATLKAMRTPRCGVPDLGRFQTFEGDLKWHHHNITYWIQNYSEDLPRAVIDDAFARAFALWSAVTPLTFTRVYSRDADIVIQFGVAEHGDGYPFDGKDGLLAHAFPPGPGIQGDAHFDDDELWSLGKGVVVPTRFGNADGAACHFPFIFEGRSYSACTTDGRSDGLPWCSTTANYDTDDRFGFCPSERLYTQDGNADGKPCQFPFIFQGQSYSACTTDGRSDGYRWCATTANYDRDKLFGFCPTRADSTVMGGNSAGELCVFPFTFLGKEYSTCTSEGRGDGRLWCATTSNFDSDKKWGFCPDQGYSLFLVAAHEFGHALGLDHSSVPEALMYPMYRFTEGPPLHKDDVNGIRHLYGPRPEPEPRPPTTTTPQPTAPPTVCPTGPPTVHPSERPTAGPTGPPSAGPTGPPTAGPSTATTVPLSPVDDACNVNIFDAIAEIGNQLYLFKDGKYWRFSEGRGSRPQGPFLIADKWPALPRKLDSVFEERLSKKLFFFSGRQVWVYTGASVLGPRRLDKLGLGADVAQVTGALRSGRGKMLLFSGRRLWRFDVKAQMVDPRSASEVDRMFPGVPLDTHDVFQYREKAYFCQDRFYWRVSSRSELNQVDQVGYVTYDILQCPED
Numbered stars: 1 amine (or outer) side, 2 acyl side, 3 side chain; on linkers, the order of the positions; unused ones are H or OH. Square brackets hold non-standard residues; d marks the D form. Peptide text beside a SMILES is read from it. * marks the point of attachment. ξ: configuration not given here. Doxorubicin(3'-N) = COc1cccc2c1C(=O)c1c(O)c3c(c(O)c1C2=O)C[C@@](O)(C(=O)CO)C[C@@H]3O[C@H]1C[C@H](N*)[C@H](O)[C@H](C)O1; X6 = CN1CCN(CCCC(N[*:1])C(=O)[*:2])CC1; hPhe = N[C@@H](CCc1ccccc1)C(=O)O; Suc = O=C(CCC(=O)[*:2])[*:1]; ξP = O=C(O)C1CCCN1; Bn = c1ccc(C*)cc1
In plain terms, low Ratio, meaning strictly below 50, gives True, and everything else gives False.

COMPOUND | ASSIGNED_CATEGORY
COc1cccc2c1C(=O)c1c(O)c3c(c(O)c1C2=O)C[C@@](O)(C(=O)CO)C[C@@H]3O[C@H]1C[C@H](NC(=O)[C@H](CC(C)C)NC(=O)[C@H](Cc2ccc(O)cc2)NC(=O)[C@H](CSCc2ccccc2)NC(=O)CNC(=O)[C@H](CC(C)C)NC(=O)[C@@H]2CCCN2C(=O)[C@H](CCC(=O)O)NC(C)=O)[C@H](O)[C@H](C)O1 (Ac-EPLGC(Bn)YL-{Doxorubicin(3'-N)}) | False
COC[C@H](NC(=O)CNC(=O)[C@H](CC(C)C)NC(=O)[C@@H]1CCCN1C(C)=O)C(=O)N[C@@H](Cc1ccc(O)cc1)C(=O)N[C@@H](CC(C)C)C(=O)N[C@H]1C[C@H](O[C@H]2C[C@](O)(C(=O)CO)Cc3c(O)c4c(c(O)c32)C(=O)c2c(OC)cccc2C4=O)O[C@@H](C)[C@H]1O (Ac-PLGS(Me)YL-{Doxorubicin(3'-N)}) | False
COc1cccc2c1C(=O)c1c(O)c3c(c(O)c1C2=O)C[C@@](O)(C(=O)CO)C[C@@H]3O[C@H]1C[C@H](NC(=O)[C@H](CC(C)C)NC(=O)[C@H](Cc2ccc(O)cc2)NC(=O)[C@H](COCc2ccccc2)NC(=O)CNC(=O)[C@H](CC(C)C)NC(=O)C2CCCN2C(=O)CCC(=O)O)[C@H](O)[C@H](C)O1 (stereo partly specified) (Suc-[ξP]LGS(Bn)YL-{Doxorubicin(3'-N)}) | False
COc1cccc2c1C(=O)c1c(O)c3c(c(O)c1C2=O)C[C@@](O)(C(=O)CO)C[C@@H]3O[C@H]1C[C@H](NC(=O)[C@H](CC(C)C)NC(=O)[C@H](CC(C)C)NC(=O)CNC(=O)[C@H](CC(C)C)NC(C)=O)[C@H](O)[C@H](C)O1 (Ac-LGLL-{Doxorubicin(3'-N)}) | True
COc1cccc2c1C(=O)c1c(O)c3c(c(O)c1C2=O)C[C@@](O)(C(=O)CO)C[C@@H]3O[C@H]1C[C@H](NC(=O)[C@H](CC(C)C)NC(=O)C(CCCN2CCN(C)CC2)NC(=O)[C@H](CCc2ccccc2)NC(=O)CNC(=O)[C@H](CC(C)C)NC(=O)[C@@H]2CCCN2C(C)=O)[C@H](O)[C@H](C)O1 (stereo partly drawn) (Ac-PLG[hPhe][X6]L-{Doxorubicin(3'-N)}) | False
COc1cccc2c1C(=O)c1c(O)c3c(c(O)c1C2=O)C[C@@](O)(C(=O)CO)C[C@@H]3O[C@H]1C[C@H](NC(=O)[C@H](CC(C)C)NC(=O)[C@H](Cc2ccc(O)cc2)NC(=O)[C@H](COCc2ccccc2)NC(=O)CNC(=O)[C@H](CC(C)C)NC(=O)[C@@H]2CCCN2C(C)=O)[C@H](O)[C@H](C)O1 (Ac-PLGS(Bn)YL-{Doxorubicin(3'-N)}) | True

###

target: Neprilysin (Homo sapiens) (UniProt P08473); experiment: Ratio Kcat to […] for neprilysin
Numbered stars: 1 amine (or outer) side, 2 acyl side, 3 side chain; on linkers, the order of the positions; unused ones are H or OH. Square brackets hold non-standard residues; d marks the D form. Peptide text beside a SMILES is read from it. * marks the point of attachment. Doxorubicin(3'-N) = COc1cccc2c1C(=O)c1c(O)c3c(c(O)c1C2=O)C[C@@](O)(C(=O)CO)C[C@@H]3O[C@H]1C[C@H](N*)[C@H](O)[C@H](C)O1; X4 = O=C(c1cc(S(=O)(=O)O)cc(S(=O)(=O)O)c1)*; X6 = CN1CCN(CCCC(N[*:1])C(=O)[*:2])CC1; hPhe = N[C@@H](CCc1ccccc1)C(=O)O; Bn = c1ccc(C*)cc1
Each entry below carries its recorded Ratio.

COMPOUND | Ratio
COc1cccc2c1C(=O)c1c(O)c3c(c(O)c1C2=O)C[C@@](O)(C(=O)CO)C[C@@H]3O[C@H]1C[C@H](NC(=O)[C@H](CC(C)C)NC(=O)[C@H](Cc2ccc(O)cc2)NC(=O)[C@@H](NC(=O)CNC(=O)[C@H](CO)NC(=O)[C@@H]2CCCN2C(=O)c2cc(S(=O)(=O)O)cc(S(=O)(=O)O)c2)[C@@H](C)OCc2ccccc2)[C@H](O)[C@H](C)O1 (X4-PSGT(Bn)YL-{Doxorubicin(3'-N)}) | < 1
COc1cccc2c1C(=O)c1c(O)c3c(c(O)c1C2=O)C[C@@](O)(C(=O)CO)C[C@@H]3O[C@H]1C[C@H](NC(=O)[C@H](CC(C)C)NC(=O)C(CCCN2CCN(C)CC2)NC(=O)[C@H](CCc2ccccc2)NC(=O)CNC(=O)[C@H](CC(C)C)NC(=O)[C@@H]2CCCN2C(C)=O)[C@H](O)[C@H](C)O1 (stereo partly drawn) (Ac-PLG[hPhe][X6]L-{Doxorubicin(3'-N)}) | < 1
COc1cccc2c1C(=O)c1c(O)c3c(c(O)c1C2=O)C[C@@](O)(C(=O)CO)C[C@@H]3O[C@H]1C[C@H](NC(=O)[C@H](CC(C)C)NC(=O)[C@H](Cc2ccc(O)cc2)NC(=O)[C@H](COCc2ccccc2)NC(=O)CNC(=O)[C@H](CC(C)C)NC(=O)[C@@H]2CCCN2C(C)=O)[C@H](O)[C@H](C)O1 (Ac-PLGS(Bn)YL-{Doxorubicin(3'-N)}) | < 1
